Data provenance is the supplement of paper PMC8617591.

Test system: Mycobacterium tuberculosis Erdman (autoluminescent)
Assay: total FIC90 (Loewe) at 90% inhibition, three-drug combination (log2); higher = more antagonistic
Settings: in vitro model: butyrate; time point: constant (~7 days, model-specific)
attribute-measured: total FIC90

Would you kindly share the measured total FIC90 for CC(C)/N=c1\cc2n(-c3ccc(Cl)cc3)c3ccccc3nc-2cc1Nc1ccc(Cl)cc1 [clofazimine] + NC(=O)c1cnccn1 [pyrazinamide] + CO[C@H]1/C=C/O[C@@]2(C)Oc3c(C)c(O)c4c(O)c(c(/C=N/N5CCN(C6CCCC6)CC5)c(O)c4c3C2=O)NC(=O)/C(C)=C\C=C\[C@H](C)[C@H](O)[C@@H](C)[C@@H](O)[C@@H](C)[C@H](OC(C)=O)[C@@H]1C [rifapentine] ? 0.657

Also COc1nc2ccc(Br)cc2cc1[C@@H](c1ccccc1)[C@@](O)(CCN(C)C)c1cccc2ccccc12 [bedaquiline] + CC(C)/N=c1\cc2n(-c3ccc(Cl)cc3)c3ccccc3nc-2cc1Nc1ccc(Cl)cc1 [clofazimine] + COc1c(N2C[C@@H]3CCCN[C@@H]3C2)c(F)cc2c(=O)c(C(=O)O)cn(C3CC3)c12 [moxifloxacin] , if possible. -0.596

Also COc1nc2ccc(Br)cc2cc1[C@@H](c1ccccc1)[C@@](O)(CCN(C)C)c1cccc2ccccc12 [bedaquiline] + NNC(=O)c1ccncc1 [isoniazid] + NC(=O)c1cnccn1 [pyrazinamide] , if possible. 0.726

Also COc1nc2ccc(Br)cc2cc1[C@@H](c1ccccc1)[C@@](O)(CCN(C)C)c1cccc2ccccc12 [bedaquiline] + CC(C)/N=c1\cc2n(-c3ccc(Cl)cc3)c3ccccc3nc-2cc1Nc1ccc(Cl)cc1 [clofazimine] + O=[N+]([O-])c1cn2c(n1)OC[C@@H](OCc1ccc(OC(F)(F)F)cc1)C2 [pretomanid] , if possible. -0.148

Also COc1nc2ccc(Br)cc2cc1[C@@H](c1ccccc1)[C@@](O)(CCN(C)C)c1cccc2ccccc12 [bedaquiline] + CC(C)/N=c1\cc2n(-c3ccc(Cl)cc3)c3ccccc3nc-2cc1Nc1ccc(Cl)cc1 [clofazimine] + CO[C@H]1/C=C/O[C@@]2(C)Oc3c(C)c(O)c4c(O)c(c(/C=N/N5CCN(C)CC5)c(O)c4c3C2=O)NC(=O)/C(C)=C\C=C\[C@H](C)[C@H](O)[C@@H](C)[C@@H](O)[C@@H](C)[C@H](OC(C)=O)[C@@H]1C [rifampicin] , if possible. -0.692

Also COc1c(N2C[C@@H]3CCCN[C@@H]3C2)c(F)cc2c(=O)c(C(=O)O)cn(C3CC3)c12 [moxifloxacin] + NC(=O)c1cnccn1 [pyrazinamide] + CO[C@H]1/C=C/O[C@@]2(C)Oc3c(C)c(O)c4c(O)c(c(/C=N/N5CCN(C)CC5)c(O)c4c3C2=O)NC(=O)/C(C)=C\C=C\[C@H](C)[C@H](O)[C@@H](C)[C@@H](O)[C@@H](C)[C@H](OC(C)=O)[C@@H]1C [rifampicin] , if possible. 2.29

Also CC(C)/N=c1\cc2n(-c3ccc(Cl)cc3)c3ccccc3nc-2cc1Nc1ccc(Cl)cc1 [clofazimine] + NNC(=O)c1ccncc1 [isoniazid] + CO[C@H]1/C=C/O[C@@]2(C)Oc3c(C)c(O)c4c(O)c(c(/C=N/N5CCN(C)CC5)c(O)c4c3C2=O)NC(=O)/C(C)=C\C=C\[C@H](C)[C@H](O)[C@@H](C)[C@@H](O)[C@@H](C)[C@H](OC(C)=O)[C@@H]1C [rifampicin] , if possible. 0.605

Also NNC(=O)c1ccncc1 [isoniazid] + O=[N+]([O-])c1cn2c(n1)OC[C@@H](OCc1ccc(OC(F)(F)F)cc1)C2 [pretomanid] + CO[C@H]1/C=C/O[C@@]2(C)Oc3c(C)c(O)c4c(O)c(c(/C=N/N5CCN(C)CC5)c(O)c4c3C2=O)NC(=O)/C(C)=C\C=C\[C@H](C)[C@H](O)[C@@H](C)[C@@H](O)[C@@H](C)[C@H](OC(C)=O)[C@@H]1C [rifampicin] , if possible. 0.589

Also COc1nc2ccc(Br)cc2cc1[C@@H](c1ccccc1)[C@@](O)(CCN(C)C)c1cccc2ccccc12 [bedaquiline] + COc1c(N2C[C@@H]3CCCN[C@@H]3C2)c(F)cc2c(=O)c(C(=O)O)cn(C3CC3)c12 [moxifloxacin] + CO[C@H]1/C=C/O[C@@]2(C)Oc3c(C)c(O)c4c(O)c(c(/C=N/N5CCN(C6CCCC6)CC5)c(O)c4c3C2=O)NC(=O)/C(C)=C\C=C\[C@H](C)[C@H](O)[C@@H](C)[C@@H](O)[C@@H](C)[C@H](OC(C)=O)[C@@H]1C [rifapentine] , if possible. 0.676

Also NC(=O)c1cnccn1 [pyrazinamide] + CO[C@H]1/C=C/O[C@@]2(C)Oc3c(C)c(O)c4c(O)c(c(/C=N/N5CCN(C6CCCC6)CC5)c(O)c4c3C2=O)NC(=O)/C(C)=C\C=C\[C@H](C)[C@H](O)[C@@H](C)[C@@H](O)[C@@H](C)[C@H](OC(C)=O)[C@@H]1C [rifapentine] + CO[C@H]1/C=C/O[C@@]2(C)Oc3c(C)c(O)c4c(O)c(c(/C=N/N5CCN(C)CC5)c(O)c4c3C2=O)NC(=O)/C(C)=C\C=C\[C@H](C)[C@H](O)[C@@H](C)[C@@H](O)[C@@H](C)[C@H](OC(C)=O)[C@@H]1C [rifampicin] , if possible. 1.12
